# study system: CYP2C9 (Homo sapiens)
# Sequence (P11712 whole entry): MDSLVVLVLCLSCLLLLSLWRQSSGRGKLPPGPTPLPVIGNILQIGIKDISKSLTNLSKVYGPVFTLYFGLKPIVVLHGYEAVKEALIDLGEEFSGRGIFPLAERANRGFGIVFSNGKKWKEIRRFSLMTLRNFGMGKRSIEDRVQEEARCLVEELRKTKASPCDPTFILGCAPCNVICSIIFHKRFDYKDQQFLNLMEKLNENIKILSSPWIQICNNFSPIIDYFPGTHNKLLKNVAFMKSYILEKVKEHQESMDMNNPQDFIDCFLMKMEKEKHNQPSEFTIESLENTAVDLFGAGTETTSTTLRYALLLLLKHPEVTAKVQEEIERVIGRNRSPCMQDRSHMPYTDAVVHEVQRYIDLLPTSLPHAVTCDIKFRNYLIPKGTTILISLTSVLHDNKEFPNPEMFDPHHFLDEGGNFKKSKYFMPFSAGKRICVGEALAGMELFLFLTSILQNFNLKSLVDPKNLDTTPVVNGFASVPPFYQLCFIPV
# experiment notes: CYP inhibition by substrate-cocktail method in HLM
# Assay type: in vitro ADME
# condition summary: human liver microsomes, pH 7.4, probe diclofenac
endpoint label: IC50 at 8 min

Query: Consider the compound shown here: Clc1ccc(COC(Cn2ccnc2)c2ccc(Cl)cc2Cl)c(Cl)c1 (stereo not shown) [MCZN, miconazole] What is its recorded IC50 at 8 min?
Result: 0.19 µg/mL

* * *

# study system: CYP2D6 (Homo sapiens)
# Sequence (P10635 whole entry): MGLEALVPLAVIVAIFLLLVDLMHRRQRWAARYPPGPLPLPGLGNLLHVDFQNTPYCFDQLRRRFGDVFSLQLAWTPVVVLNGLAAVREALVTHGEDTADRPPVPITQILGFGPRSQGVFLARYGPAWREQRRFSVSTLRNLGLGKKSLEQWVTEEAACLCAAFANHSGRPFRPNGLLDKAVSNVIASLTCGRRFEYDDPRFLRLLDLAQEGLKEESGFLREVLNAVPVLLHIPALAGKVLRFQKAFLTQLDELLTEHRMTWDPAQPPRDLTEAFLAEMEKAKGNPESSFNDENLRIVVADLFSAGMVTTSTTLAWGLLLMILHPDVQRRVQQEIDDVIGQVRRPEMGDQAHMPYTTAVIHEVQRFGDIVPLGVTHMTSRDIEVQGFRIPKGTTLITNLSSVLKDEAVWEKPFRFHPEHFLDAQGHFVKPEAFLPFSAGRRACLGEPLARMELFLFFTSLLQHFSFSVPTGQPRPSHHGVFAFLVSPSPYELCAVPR
# experiment notes: CYP inhibition by substrate-cocktail method in HLM
# Assay type: in vitro ADME
# condition summary: human liver microsomes, pH 7.4, probe dextromethorphan
endpoint label: IC50 at 8 min (mg/L)
Your answer is read as mg/L, so omit the unit and give the number.

Query: Consider the compound shown here: Clc1ccc(COC(Cn2ccnc2)c2ccc(Cl)cc2Cl)c(Cl)c1 (stereo not shown) [MCZN, miconazole] What is its recorded IC50 at 8 min?
Result: 0.56

The reported measurements were obtained from paper PMC5068113.
